Target: renin (Homo sapiens)
Sequence (P00797 67-406): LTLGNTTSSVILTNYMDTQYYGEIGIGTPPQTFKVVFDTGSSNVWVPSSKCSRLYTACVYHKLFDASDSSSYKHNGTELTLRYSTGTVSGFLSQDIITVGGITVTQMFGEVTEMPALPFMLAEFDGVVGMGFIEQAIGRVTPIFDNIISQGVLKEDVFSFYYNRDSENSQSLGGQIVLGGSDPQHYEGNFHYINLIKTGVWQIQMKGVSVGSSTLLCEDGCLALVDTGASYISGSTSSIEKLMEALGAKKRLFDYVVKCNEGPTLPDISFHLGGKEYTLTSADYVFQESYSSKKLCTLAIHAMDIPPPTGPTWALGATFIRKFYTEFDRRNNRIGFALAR
Hi! Could you tag entries with IC50 below 7000 nM as yes (1), and those at or above as no (0)? Much appreciated.

Some solved entries appear below for comparison.
CC(C)CC(=O)N[C@@H](Cc1ccccc1)C(=O)N[C@@H](Cc1c[nH]cn1)C(=O)N[C@@H](CC1CCCCC1)C(O)CCC(=O)NCc1cccc(CN)c1 (some centres unmarked): yes (1)
CC(C)C[C@H](NC(=O)C[C@H](O)[C@H](CC1CCCCC1)NC(=O)CC1OC1[C@H](Cc1ccccc1)NC(=O)OC(C)(C)C)C(=O)NCc1cccc(CNC(=O)OCc2ccccc2)c1 (some centres unmarked): yes (1)
CC(C)CC(NC(=O)CC(O)C(CC(C)C)NC(=O)C(Cc1ccccc1)SCC(Cc1ccccc1)NC(=O)CCCC(=O)O)C(=O)NCc1ccccc1 (centres unmarked): no (0)

Could you now consider this next molecule?
IN: Find out if reported IC50 for CC(C)C[C@H](NC(=O)C[C@H](O)[C@H](CC1CCCCC1)NC(=O)/C=C/C(O)[C@H](Cc1ccccc1)NC(=O)OC(C)(C)C)C(=O)NCc1cccc(CNC(=O)OCc2ccccc2)c1 (some centres unmarked) is less than 7000 nM
OUT: yes (1)

----------
Quick record of IC50 values for renin (Homo sapiens).
Number in µM, nothing else.

CC(C)CC(=O)N[C@@H](Cc1ccccc1)C(=O)N[C@@H](Cc1c[nH]cn1)C(=O)N[C@@H](CC1CCCCC1)C(O)CC(CC(C)C)C(=O)NCc1ccccc1 (stereo partly shown): 0.24
CC(C)C[C@H](NC(=O)C[C@H](O)[C@H](CC(C)C)NC(=O)[C@H](Cc1cncn1COCc1ccccc1)NC[C@H](Cc1ccccc1)NC(=O)OC(C)(C)C)C(=O)NCc1ccccc1 [Example 62, BOC-PHE[CH2 NH]HIS(BOM)-STA-LEU-NHCH2 Ph]: 16
CC(C)C[C@H](NC(=O)C[C@H](O)[C@H](CC(C)C)NC(=O)C/C=C/[C@H](Cc1c[nH]c2ccccc12)NC(=O)OC(C)(C)C)C(=O)NCc1ccccc1: 20

Continue with the next compound.
IN: Tell me the measured IC50 of CC(C)C[C@H](NC(=O)C[C@H](O)[C@H](CC(C)C)NC(=O)C(Cc1c[nH]cn1)CC(O)[C@H](Cc1ccccc1)NC(=O)OC(C)(C)C)C(=O)NCc1ccccc1 (single isomer, unassigned) [Example 30, BOC-PHE[CHOHCH2 ]HIS-STA-LEU-NHCH2 Ph] , please.
OUT: 30

----------
Target: renin (Homo sapiens, UniProt P00797)
Sequence (P00797 67-406): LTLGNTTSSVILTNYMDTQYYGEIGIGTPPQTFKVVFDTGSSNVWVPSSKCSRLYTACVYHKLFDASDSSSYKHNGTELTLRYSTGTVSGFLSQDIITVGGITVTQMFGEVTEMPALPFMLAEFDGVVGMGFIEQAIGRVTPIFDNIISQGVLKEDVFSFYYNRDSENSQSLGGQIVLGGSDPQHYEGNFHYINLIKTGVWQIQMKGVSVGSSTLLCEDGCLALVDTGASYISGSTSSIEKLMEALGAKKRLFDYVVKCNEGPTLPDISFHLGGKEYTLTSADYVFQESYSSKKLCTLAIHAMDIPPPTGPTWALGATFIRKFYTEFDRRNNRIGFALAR
Metric: pIC50
Just so you know, pIC50 here is -log10 of the concentration in molar units; reply with that number alone.

Field: example entries. Status: answers known.
CC(C)C[C@H](NC(=O)C[C@H](O)[C@H](CC1CCCCC1)NC(=O)CCC(O)[C@H](Cc1ccccc1)NC(=O)OC(C)(C)C)C(=O)NCc1cccc(CN)c1 (some centres unmarked) [Example 24]: 7.66
CC[C@H](C)[C@H](NC[C@@H](NC(=O)CC(C)C)[C@@H](C)CC)C(=O)N[C@@H](CC(C)C)[C@@H](O)CC(=O)N[C@@H](CC(C)C)C(=O)NCc1ccccc1 [Example 73]: 4.52
CC(C)CC(=O)N[C@H](CN[C@H](C(=O)N[C@@H](CC(C)C)[C@@H](O)CC(=O)N[C@@H](C)C(=O)N[C@@H](CC(C)C)[C@@H](O)CC(=O)NCc1ccccc1)C(C)C)C(C)C (relative stereo) [Example 52]: 4.74
CC(C)CC(NC(=O)CC(O)C(CC(C)C)NC(=O)CC(O)C(O)C(CC1CCCCC1)NC(=O)OC(C)(C)C)C(=O)NCc1ccccc1 (single isomer, unassigned) [Example 17]: 5.19

IN: Please look up its pIC50: CC(C)C[C@H](NC(=O)C(/C=C/[C@H](Cc1ccccc1)NC(=O)OC(C)(C)C)Cc1ccccc1)[C@@H](O)CC(=O)N[C@@H](C)C(=O)N[C@@H](CC(C)C)[C@@H](O)CC(=O)NCc1ccccc1 (some centres unmarked) [Example 2]
OUT: 4.92

IN: Need pIC50 of CC(C)CC(=O)N[C@@H](Cc1ccccc1)C(=O)N[C@@H](Cc1c[nH]cn1)C(=O)N[C@@H](CC(C)C)[C@@H](O)CC(=O)N[C@H](CNCc1ccccc1)CC(C)C [Example 58, IVA-PHE-HIS-STA-LEU[CH2 NH]CH2 Ph] , thanks.
OUT: 5.72

IN: Need pIC50 of CCC(C)CNC(=O)CCC(O)[C@H](CC1CCCCC1)NC(=O)[C@H](Cc1c[nH]cn1)NC(=O)[C@H](Cc1cccc2ccccc12)NC(=O)OCc1ccccc1 (some centres unmarked) [Example 77] , thanks.
OUT: 5.80

IN: Fill in the blank: the reported pIC50 of CC(C)CC(=O)N[C@@H](Cc1ccccc1)C(=O)N[C@@H](Cc1c[nH]cn1)C(=O)N[C@@H](CC1CCCCC1)C(O)CCC(=O)N[C@@H](CC(C)C)C(=O)NCc1ccccc1 (some centres unmarked) [Example 28] is ____.
OUT: 7.85
